- measurement_target: T1, Fc-G236A (human, UniProt P01857-1 104-330 = IgG part, G236A)
- T1 construct: domain: Fc fragment; Positions in EU numbering; also called IgG1-Fc G236A
- experiment_notes: SPR (IBIS MX96), FcγR captured on sensor, Fc fragment titrated, pH 7.4, equilibrium 1:1 fit
pKd: −log10 of the molar value.
measured_endpoint: pKd

Ask | Endpoint output: pKd of human FcγRIIb (receptor, UniProt P31994 43-217, looked up, C-terminal biotin, Bought, C-terminally biotinylated; captured on a streptavidin sensor; also called hFcγRIIb) TPAAPPKAVLKLEPQWINVLQEDSVTLTCRGTHSPESDSIQWFHNGNLIPTHTQPSYRFKANNNDSGEYTCQTGQTSLSDPVHLTVLSEWLVLQTPHLEFQEGETIVLRCHSWKDKPLVKVTFFQNGKSKKFSRSDPNFSIPQANHSHSGDYHCTGNIGYTLYSSKPVTITVQAP . Value?
Reply | < 5.70

Ask | Further, for human FcγRIIIb-NA2 (receptor, UniProt O75015 17-200, looked up, C-terminal biotin, In-house, C-terminally biotinylated; captured on a streptavidin sensor; also called hFcγRIIIb-NA2) GMRTEDLPKAVVFLEPQWYSVLEKDSVTLKCQGAYSPEDNSTQWFHNESLISSQASSYFIDAATVNDSGEYRCQTNLSTLSDPVQLEVHIGWLLLQAPRWVFKEEDPIHLRCHSWKNTALHKVTYLQNGKDRKYFHHNSDFHIPKATLKDSGSYFCRGLVGSKNVSSETVNITITQGLAVSTIS ?
Reply | < 5.70

Ask | Consider next the binder human FcγRIIIb-NA1 (receptor, UniProt O75015 17-200, looked up, C-terminal biotin, In-house, C-terminally biotinylated; captured on a streptavidin sensor; also called hFcγRIIIb-NA1) GMRTEDLPKAVVFLEPQWYRVLEKDSVTLKCQGAYSPEDNSTQWFHNENLISSQASSYFIDAATVDDSGEYRCQTNLSTLSDPVQLEVHVGWLLLQAPRWVFKEEDPIHLRCHSWKNTALHKVTYLQNGKDRKYFHHNSDFHIPKATLKDSGSYFCRGLVGSKNVSSETVNITITQGLAVSTIS in the same way.
Reply | < 5.70
